System: human Factor 7 mRNA
Assay text: Antisense inhibition of human Factor 7 mRNA in HepB3 cells, 50 nM antisense oligonucleotide, lipofectin
Assay type: cell-based
Condition set: Table 1, 50 nM, lipofectin, approximately 24 hours, relative to untreated control cells
Strand notation (5' to 3'): a small letter for the sugar, then the base; units joined by * are phosphorothioate-linked, units joined directly phosphodiester-linked; [ ] holds rarer units or linkages, { } end groups; capitals alone tell only the bases. e = 2'-O-(2-methoxyethyl) (MOE); [5mC] = 5-methylcytosine; d = 2'-deoxy (DNA)
Measured % Inhibition of individual entries

Substance	Meas value
407931 (antisense e[5mC]*eT*eT*e[5mC]*eA*dG*dA*dG*dG*dA*d[5mC]*dA*dG*d[5mC]*dA*e[5mC]*eA*e[5mC]*eA*eT) [compound 407931]	56%

Query: Please give the measured % Inhibition for this substance: 407668 (antisense eG*eA*eA*eG*e[5mC]*d[5mC]*dT*dT*dA*d[5mC]*d[5mC]*dT*dG*d[5mC]*d[5mC]*eA*eT*eG*eG*eA) [compound 407668]
Response: 54%

Query: Please give the measured % Inhibition for this substance: 407887 (antisense e[5mC]*e[5mC]*eA*eG*eG*d[5mC]*dA*dG*d[5mC]*d[5mC]*d[5mC]*dT*dG*dA*dA*eG*e[5mC]*e[5mC]*e[5mC]*eA) [compound 407887]
Response: 78%

###

System: human Factor 7 mRNA
Assay text: Dose-dependent antisense inhibition of human Factor 7 in HepB3 cells, electroporation
Type: cell-based
Condition set: 50 μM, approx. 16 hours (Table 15, Example 7)
Strand notation (5' to 3'): a small letter for the sugar, then the base; units joined by * are phosphorothioate-linked, units joined directly phosphodiester-linked; [ ] holds rarer units or linkages, { } end groups; capitals alone tell only the bases. e = 2'-O-(2-methoxyethyl) (MOE); [5mC] = 5-methylcytosine; d = 2'-deoxy (DNA)
Measured percent inhibition of Factor 7 mRNA, relative to untreated control cells of individual entries
Kindly provide the numeric value in % only, without the unit symbol.

Substance	Assay target	Meas value
422228 (antisense eT*eG*d[5mC]*dA*dT*dG*dG*dT*dG*dA*dT*dG*d[5mC]*dT*dT*e[5mC]*eT*eG*eA*eA) [compound 422228]	human Factor 7 mRNA	71
422183 (antisense eG*e[5mC]*eG*d[5mC]*d[5mC]*dA*d[5mC]*d[5mC]*d[5mC]*dG*d[5mC]*d[5mC]*dG*dG*d[5mC]*dT*d[5mC]*eT*eG*e[5mC]) [compound 422183]	human Factor 7 mRNA	59
422295 (antisense e[5mC]*eG*dA*dG*dT*dT*d[5mC]*dT*dG*d[5mC]*dA*dG*dG*dA*dG*e[5mC]*eG*eG*e[5mC]*e[5mC]) [compound 422295]	human Factor 7 mRNA	68
422142 (antisense eG*eA*eG*eT*eT*d[5mC]*dT*dG*d[5mC]*dA*dG*dG*dA*dG*d[5mC]*eG*eG*e[5mC]*e[5mC]*eT) [compound 422142]	human Factor 7 mRNA	77

From here, focus on the item given below.
Query: Please give the measured percent inhibition of Factor 7 mRNA, relative to untreated control cells for this substance: 422152 (antisense eA*eT*eG*d[5mC]*dA*dT*dG*dG*dT*dG*dA*dT*dG*d[5mC]*dT*dT*d[5mC]*eT*eG*eA) [compound 422152]
Response: 65

###

Tested on: human Factor 7 mRNA
Assay text: Antisense inhibition of human Factor 7 mRNA in HepB3 cells, 50 nM antisense oligonucleotide, lipofectin
Format: cell-based
Condition set: oligonucleotides targeted to nucleobases 15098 to 15122 of SEQ ID NO: 1 (Table 12)
Strand notation (5' to 3'): a small letter for the sugar, then the base; units joined by * are phosphorothioate-linked, units joined directly phosphodiester-linked; [ ] holds rarer units or linkages, { } end groups; capitals alone tell only the bases. e = 2'-O-(2-methoxyethyl) (MOE); [5mC] = 5-methylcytosine; d = 2'-deoxy (DNA)
Please use the following % Inhibition (human Factor 7 mRNA levels) ranges when assigning a class: class 0: < 40%; class 1: ≥ 40% and < 50%; class 2: ≥ 50%

Before answering, review these 4 worked examples.
> print(dat)
                                  substance  label.value
1  407643 (antisense e[5mC]*eA*e[5mC]*eA*e[5mC]*dA*dT*dG*dG*dA*dG*dT*d[5mC]*dA*dG*e[5mC]*eA*eT*e[5mC]*eG) [compound 407643]      class 2
2  422212 (antisense eG*eA*e[5mC]*dA*dG*d[5mC]*dA*d[5mC]*dA*d[5mC]*dA*dT*dG*dG*dA*dG*dT*e[5mC]*eA*eG) [compound 422212]      class 0
3  422210 (antisense e[5mC]*eA*eG*d[5mC]*dA*d[5mC]*dA*d[5mC]*dA*dT*dG*dG*dA*dG*dT*d[5mC]*dA*eG*e[5mC]*eA) [compound 422210]      class 0
4  422289 (antisense eG*eA*d[5mC]*dA*dG*d[5mC]*dA*d[5mC]*dA*d[5mC]*dA*dT*dG*dG*dA*eG*eT*e[5mC]*eA*eG) [compound 422289]      class 0

We next turn to a different substance, shown below.
Query: Classify this substance: 422208 (antisense eG*e[5mC]*eA*d[5mC]*dA*d[5mC]*dA*dT*dG*dG*dA*dG*dT*d[5mC]*dA*dG*d[5mC]*eA*eT*e[5mC]) [compound 422208]
Response: class 2

###

Test system: human Factor 7 mRNA
Assay text: Antisense inhibition of human Factor 7 mRNA in HepB3 cells, 50 nM antisense oligonucleotide, lipofectin
Assay type: cell-based
Condition set: Table 1, 50 nM, lipofectin, approximately 24 hours, relative to untreated control cells
Procedure: Antisense oligonucleotides targeted to a Factor 7 nucleic acid were tested for their effects on Factor 7 mRNA in vitro. […] After a treatment period of approximately 24 hours, RNA was isolated from the cells and Factor 7 mRNA levels were measured by real-time RT-PCR, as described herein. Factor 7 mRNA levels were adjusted according to total RNA content as measured by RIBOGREEN®. […]
Strand notation (5' to 3'): a small letter for the sugar, then the base; units joined by * are phosphorothioate-linked, units joined directly phosphodiester-linked; [ ] holds rarer units or linkages, { } end groups; capitals alone tell only the bases. e = 2'-O-(2-methoxyethyl) (MOE); [5mC] = 5-methylcytosine; d = 2'-deoxy (DNA)
Measured % Inhibition of individual entries
# include the unit after the value

Some substances with recorded % Inhibition:
Substance	% Inhibition
407653 (antisense eA*eA*eT*eA*eT*d[5mC]*dA*dT*dT*dG*dA*d[5mC]*dA*dA*dG*eG*eG*e[5mC]*eT*eG) [compound 407653]	21%
407616 (antisense eT*eG*e[5mC]*eA*eG*dG*dA*d[5mC]*dA*d[5mC]*d[5mC]*d[5mC]*d[5mC]*dG*dT*e[5mC]*eT*eG*e[5mC]*e[5mC]) [compound 407616]	64%
407644 (antisense eG*eA*eG*eG*eA*d[5mC]*dA*dG*d[5mC]*dA*d[5mC]*dA*d[5mC]*dA*dT*eG*eG*eA*eG*eT) [compound 407644]	66%

Query: Please give the measured % Inhibition for this substance: 407619 (antisense eA*eG*eA*eA*eT*dA*dG*dG*dT*dA*dT*dT*dT*dT*dT*e[5mC]*e[5mC]*eA*e[5mC]*eA) [compound 407619]
Response: 64%

Query: Please give the measured % Inhibition for this substance: 407937 (antisense eG*eA*eA*eG*eG*dG*dA*dG*dA*dA*dA*dT*dA*d[5mC]*dA*eT*eT*eT*eG*eG) [compound 407937]
Response: 59%

Query: Please give the measured % Inhibition for this substance: 407926 (antisense e[5mC]*e[5mC]*eA*eG*eG*dA*d[5mC]*dA*dA*d[5mC]*d[5mC]*dT*dT*dG*dG*e[5mC]*eA*e[5mC]*eT*e[5mC]) [compound 407926]
Response: 79%

Query: Please give the measured % Inhibition for this substance: 407953 (antisense eA*e[5mC]*eA*eT*e[5mC]*d[5mC]*dA*dA*dT*dT*d[5mC]*d[5mC]*dA*d[5mC]*dA*eG*eG*eA*eT*e[5mC]) [compound 407953]
Response: 20%

Query: Please give the measured % Inhibition for this substance: 407901 (antisense eT*eG*eG*eT*eG*dT*dT*dG*dA*dT*d[5mC]*dA*dG*dG*dG*eT*e[5mC]*e[5mC]*e[5mC]*e[5mC]) [compound 407901]
Response: 89%

###

Test system: human Factor 7 mRNA
Assay text: Antisense inhibition of human Factor 7 mRNA in HepB3 cells, 50 nM antisense oligonucleotide, lipofectin
Type: cell-based
Condition set: oligonucleotides targeted to nucleobases 13760 to 13789 of SEQ ID NO: 1 (Table 10)
Strand notation (5' to 3'): a small letter for the sugar, then the base; units joined by * are phosphorothioate-linked, units joined directly phosphodiester-linked; [ ] holds rarer units or linkages, { } end groups; capitals alone tell only the bases. e = 2'-O-(2-methoxyethyl) (MOE); [5mC] = 5-methylcytosine; d = 2'-deoxy (DNA)
Observation type: % Inhibition (human Factor 7 mRNA levels) (%)
Kindly provide the numeric value in % only, without the unit symbol.

Some substances with recorded % Inhibition (human Factor 7 mRNA levels):
Substance	Meas value
422111 (antisense e[5mC]*eA*e[5mC]*e[5mC]*e[5mC]*dG*d[5mC]*d[5mC]*dG*dG*d[5mC]*dT*d[5mC]*dT*dG*e[5mC]*eT*e[5mC]*eA*eT) [compound 422111]	37
422113 (antisense eG*e[5mC]*e[5mC]*eA*e[5mC]*d[5mC]*d[5mC]*dG*d[5mC]*d[5mC]*dG*dG*d[5mC]*dT*d[5mC]*eT*eG*e[5mC]*eT*e[5mC]) [compound 422113]	68
422183 (antisense eG*e[5mC]*eG*d[5mC]*d[5mC]*dA*d[5mC]*d[5mC]*d[5mC]*dG*d[5mC]*d[5mC]*dG*dG*d[5mC]*dT*d[5mC]*eT*eG*e[5mC]) [compound 422183]	79
422175 (antisense e[5mC]*eG*e[5mC]*d[5mC]*dG*dG*d[5mC]*dT*d[5mC]*dT*dG*d[5mC]*dT*d[5mC]*dA*dT*d[5mC]*e[5mC]*e[5mC]*e[5mC]) [compound 422175]	69
422260 (antisense eG*e[5mC]*dG*d[5mC]*d[5mC]*dA*d[5mC]*d[5mC]*d[5mC]*dG*d[5mC]*d[5mC]*dG*dG*d[5mC]*eT*e[5mC]*eT*eG*e[5mC]) [compound 422260]	56

Query: Return % Inhibition (human Factor 7 mRNA levels) measured with human Factor 7 mRNA given this substance: 422256 (antisense e[5mC]*eA*d[5mC]*d[5mC]*d[5mC]*dG*d[5mC]*d[5mC]*dG*dG*d[5mC]*dT*d[5mC]*dT*dG*e[5mC]*eT*e[5mC]*eA*eT) [compound 422256]
Response: 29

Query: Return % Inhibition (human Factor 7 mRNA levels) measured with human Factor 7 mRNA given this substance: 422109 (antisense e[5mC]*e[5mC]*e[5mC]*eG*e[5mC]*d[5mC]*dG*dG*d[5mC]*dT*d[5mC]*dT*dG*d[5mC]*dT*e[5mC]*eA*eT*e[5mC]*e[5mC]) [compound 422109]
Response: 68

Query: Return % Inhibition (human Factor 7 mRNA levels) measured with human Factor 7 mRNA given this substance: 422110 (antisense eA*e[5mC]*e[5mC]*e[5mC]*eG*d[5mC]*d[5mC]*dG*dG*d[5mC]*dT*d[5mC]*dT*dG*d[5mC]*eT*e[5mC]*eA*eT*e[5mC]) [compound 422110]
Response: 53

Query: Return % Inhibition (human Factor 7 mRNA levels) measured with human Factor 7 mRNA given this substance: 422114 (antisense e[5mC]*eG*e[5mC]*e[5mC]*eA*d[5mC]*d[5mC]*d[5mC]*dG*d[5mC]*d[5mC]*dG*dG*d[5mC]*dT*e[5mC]*eT*eG*e[5mC]*eT) [compound 422114]
Response: 50

Query: Return % Inhibition (human Factor 7 mRNA levels) measured with human Factor 7 mRNA given this substance: 422115 (antisense eG*e[5mC]*eG*e[5mC]*e[5mC]*dA*d[5mC]*d[5mC]*d[5mC]*dG*d[5mC]*d[5mC]*dG*dG*d[5mC]*eT*e[5mC]*eT*eG*e[5mC]) [compound 422115]
Response: 66
